run-description: Plasma level after peroral intake of compound A in tablet form
Type: in vivo
condition-notes: human, po, 1 mg perorally in tablet form, read-out: time to maximal active substance level (converted)
observable: Tmax (min)
Your answer is read as min, so omit the unit and give the number.

Annotate the molecule CC(C)(C)OC(=O)c1ncn2c1[C@@H]1CCCN1C(=O)c1c(Br)cccc1-2 [Compound A] with its measured Tmax. 45

Source: patent US4861772A
